# target.entity: cysteines in MDA-MB-231 and Ramos cells (Homo sapiens, UniProt Q96C19)
# Sequence (Q96C19 whole entry, the tested form may be a part): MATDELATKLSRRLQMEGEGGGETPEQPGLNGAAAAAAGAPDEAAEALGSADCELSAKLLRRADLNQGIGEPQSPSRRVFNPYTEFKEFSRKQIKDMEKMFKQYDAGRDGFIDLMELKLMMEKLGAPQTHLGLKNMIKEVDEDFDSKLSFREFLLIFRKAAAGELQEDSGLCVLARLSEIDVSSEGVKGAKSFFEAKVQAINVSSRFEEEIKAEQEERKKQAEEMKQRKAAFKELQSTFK
# test.method.notes: Competitive isoTOP-ABPP in situ (fragment-treated cells)
# Format: cell-based
# stated.conditions: 200 μM, insitu, 231
The label true is reserved for isoTOP-ABPP ratio Q96C19_C172 strictly under 0.9; false covers values equal to or above it.

QUERY: Is it true that isoTOP-ABPP ratio Q96C19_C172 reported for `O=C(CCl)N1CCN(S(=O)(=O)c2ccccc2F)CC1` is less than 0.9?
RESULT: false

QUERY: Strictly below 0.9: is that where isoTOP-ABPP ratio Q96C19_C172 of `C=CC(=O)Nc1cc(F)c(N2CCN(C(=O)OC(C)(C)C)CC2)c(F)c1` sits?
RESULT: true

QUERY: Does this compound meet the criterion isoTOP-ABPP ratio Q96C19_C172 < 0.9? `O=C(CCl)Nc1cccc2ncccc12`
RESULT: false

QUERY: Quick check: does `O=C(CCl)NCCc1c[nH]c2ccccc12` have isoTOP-ABPP ratio Q96C19_C172 under 0.9?
RESULT: true

QUERY: Is isoTOP-ABPP ratio Q96C19_C172 of `Cc1ccc(C=C(C#N)C(=O)NCCN2CCOCC2)cc1` strictly below 0.9?
RESULT: true

QUERY: Dear colleague, could you confirm whether isoTOP-ABPP ratio Q96C19_C172 of `C=CC(=O)N(Cc1cccnc1)c1cc(C(F)(F)F)cc(C(F)(F)F)c1` falls below 0.9? Thanks.
RESULT: false

----------
# target.entity: PDIA6 C190 (Q15084) (Homo sapiens, UniProt Q15084)
# Sequence (Q15084 20-440): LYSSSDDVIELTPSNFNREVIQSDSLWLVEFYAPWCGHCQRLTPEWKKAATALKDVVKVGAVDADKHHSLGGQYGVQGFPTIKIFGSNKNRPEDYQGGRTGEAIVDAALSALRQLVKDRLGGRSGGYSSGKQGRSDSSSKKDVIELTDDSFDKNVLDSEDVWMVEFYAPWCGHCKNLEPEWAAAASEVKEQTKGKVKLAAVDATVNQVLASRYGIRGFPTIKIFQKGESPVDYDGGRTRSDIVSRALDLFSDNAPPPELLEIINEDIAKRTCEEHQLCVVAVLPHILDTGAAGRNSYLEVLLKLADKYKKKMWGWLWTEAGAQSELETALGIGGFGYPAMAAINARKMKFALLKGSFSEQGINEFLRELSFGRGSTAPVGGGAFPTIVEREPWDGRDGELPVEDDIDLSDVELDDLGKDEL
# test.method.notes: Competitive isoTOP-ABPP, cell lysates
# Type: binding
# stated.conditions: 500 μM, invitro, 231
Hi there, I'd appreciate the recorded isoTOP-ABPP ratio, Q15084_C190 for every entry that follows.
// no unit, no text: just the number

QUERY: Fill in the blank: the reported isoTOP-ABPP ratio, Q15084_C190 of C=CC(=O)N(Cc1cccnc1)c1ccc(Oc2ccccc2)c(C(F)(F)F)c1 [compound 15] is ____.
RESULT: 0.9

QUERY: Which value of isoTOP-ABPP ratio, Q15084_C190 has been reported for Cn1cc(S(=O)(=O)N2CCOCC2)cc1C(=O)NC(=O)CCl [compound 11] in the records?
RESULT: 20.0

QUERY: May I ask what isoTOP-ABPP ratio, Q15084_C190 has been recorded for O=C(CCl)NCCc1c[nH]c2ccccc12 [compound 13] ?
RESULT: 1.5

QUERY: Suppose we examine the molecule CNS(=O)(=O)C=Cc1ccc2c(ccn2Cc2ccccc2)c1 [compound 6] ; what isoTOP-ABPP ratio, Q15084_C190 value has been reported?
RESULT: 1.1
